// provenance: patent US20120208867

Test target: His-tagged MIF (UniProt P14174 P14174:2-115)
Sequence (P14174 2-115, one chain of several): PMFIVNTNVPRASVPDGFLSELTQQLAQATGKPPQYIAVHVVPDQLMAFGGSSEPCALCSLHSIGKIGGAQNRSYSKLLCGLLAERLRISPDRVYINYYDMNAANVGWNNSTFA
Method notes: SPR; 300 nM His-MIF specificity control
Measured endpoint: binding result

[[record]]
binder = "#06 (ssRNA) RNA: GGGACGCUCACGUACGCUCAUACACUGCACGCUCCGCUUUGAACAUCAAUGGAGGCCCUGUCAGUGCCUGGACGUGCAGU"
result = "no binding"

[[record]]
binder = "#47 (ssRNA) RNA: GGGACGCUCACGUACGCUCAAAAAACUACUGCCGAACCGUAAGACACGUAGAACCAGGCAUCAGUGCCUGGACGUGCAGU"
result = "no binding"

[[record]]
binder = "#34 (ssRNA) RNA: GGGACGCUCACGUACGCUCAAUUCACCUCAGCAUGUCCGCUUGUGACGAUGGAGGCACCUUCAGUGCCUGGACGUGCAGU"
result = "no binding"

